experiment: qHTS assay to identify small molecule agonists of the androgen receptor (AR) signaling pathway in the presence of an antagonist - cell viability counter screen (AID 1259379); details: MDA-kb2 viability, CellTiter-Fluor, 16 h; series mostly up to 92.4 µM;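 further: MDA-kb2 human breast cancer cells carrying an MMTV luciferase reporter; on the % scale 0 is the no-effect control and ±100 the full control effect; nearly all actives have a fitted effect of over 25% in size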
Inconclusive results are not listed. Activity calls are given as the source filed them. The call rests on the fitted dose curve; in most records, active means well fitted cell-killing curve with a large enough effect in the repeat runs; inconclusive means weak or mixed curves, or effect the other way; inactive means flat fitted curve, though single readings scatter.
REPORTED_ENDPOINT: activity change, negative = cytotoxicity

1) Cc1[nH]c(C)c(Cl)c(=O)c1Cl ... 0.0878% [at 19 µM] (inactive)
2) NCC(=O)O ... 0.351% [at 19 µM] (inactive)
3) NC(N)=NCCC[C@H](N)C(=O)O ... 2.11% [at 8.39 µM] (inactive)
4) O=C(O)CNCC(=O)O ... -0.627% [at 8.39 µM] (inactive)

From here, focus on the item given below.
Asked: Report activity change, negative = cytotoxicity, nothing else, for this molecule: CC(CSC(=O)c1ccccc1)C(=O)N1C[C@@H](Sc2ccccc2)C[C@H]1C(=O)O (stereo not given in full)
Given back: 1.42% [at 19 µM] (inactive)

* * *

experiment: qHTS RealTime-Glo MT Cell Viability Assay in HepG2 cells - 16 hour (AID 1224885); details: RealTime-Glo luminescence; series mostly up to 76.8 µM; further: on the % scale 0 is the no-effect control and ±100 the full control effect; nearly all actives have a fitted effect of over 50% in size
Inconclusive results are not listed. Active and inactive are the calls of the source. Calls come from the whole dose curve; as a rule, active = well fitted cell-killing curve with a large enough effect in the repeat runs; inconclusive = weak or mixed curves; inactive = flat fitted curve, though single readings scatter.
REPORTED_ENDPOINT: activity change, negative = cytotoxic

Look over these answered cases.
1. O=C(O)c1ccco1 ... inactive
2. CCCCCC[C@@H](O)C/C=C\CCCCCCCC(=O)OC ... inactive
3. CN1Cc2cc(C(=O)N3CCC(C4CCNCC4)CC3)ccc2NC(CC(=O)O)C1=O (stereo not drawn) ... inactive
4. NC(N)=NCCC[C@H](N)C(=O)O ... 0.73% [at 6.97 µM] (inactive)
5. CC(C)O.CC(C)O.CCOC(=O)/C=C(\C)O.CCOC(=O)/C=C(\C)O.[Ti] ... inactive
6. CCOC(=O)c1cccnc1 ... inactive

Asked: Report activity change, negative = cytotoxic, nothing else, for this molecule: `CCCC(=O)Nc1ccc(O)c(C(C)=O)c1`
Given back: inactive

Asked: Report activity change, negative = cytotoxic, nothing else, for this molecule: `ClCCOCCOCCCl`
Given back: inactive

Asked: Report activity change, negative = cytotoxic, nothing else, for this molecule: `CCCCC`
Given back: inactive

Asked: Report activity change, negative = cytotoxic, nothing else, for this molecule: `O=[N+]([O-])c1ccc2[nH]ncc2c1`
Given back: inactive

Asked: Report activity change, negative = cytotoxic, nothing else, for this molecule: `CCCCCCCCCCCCCCCCOS(=O)(=O)O`
Given back: inactive

Asked: Report activity change, negative = cytotoxic, nothing else, for this molecule: `NC(=O)C(c1ccccc1)(c1ccccc1)[C@@H]1CCN(CCc2ccc3c(c2)CCO3)C1`
Given back: inactive

Asked: Report activity change, negative = cytotoxic, nothing else, for this molecule: CCC(Cl)CCC(Cl)C(Cl)CC(Cl)C(Cl)C(Cl)CCl (stereo not drawn)
Given back: inactive

* * *

experiment: qHTS assay for identifying genotoxic compounds that show differential cytotoxicity against isogenic chicken DT40 cell lines with known DNA damage response pathways - Rev3 mutant cell line (AID 743014); settings: chicken DT40 Rev3-/- viability, CellTiter-Glo, 40 h; series mostly up to 68.4 µM; further: nearly all actives have a fitted effect of over 55% in size
Results filed as inconclusive are left out. Calls of active or inactive are those of the source. The call rests on the fitted dose curve; in most records, active means well fitted cell-killing curve with a large enough effect in the repeat runs; inconclusive means weak or mixed curves, or effect the other way; inactive means no such curve, though single readings can be large or run the other way.
Respond using exactly one of the listed classes: True = active, False = inactive

Consider the worked cases shown below.
1. Cc1cc(N)c2cc(NC(=O)Nc3ccc4nc(C)cc(N)c4c3)ccc2n1 ... True
2. CC(COCCO)OCCO (stereo unspecified) ... False
3. CCO[C@H](Cc1ccc(OCCc2ccc(OS(C)(=O)=O)cc2)cc1)C(=O)O ... False

Asked: Kindly provide the recorded test outcome for the following compound: `CC(C)CC(=O)C1C(=O)c2ccccc2C1=O`
Given back: False

Asked: Kindly provide the recorded test outcome for the following compound: `Brc1c2ccccc2cc2ccccc12`
Given back: False

* * *

test: qHTS assay to identify small molecule agonists of the RXR signaling pathway - cell viability counter screen (AID 1159529); conditions: RXR-alpha-bla HEK293T viability, CellTiter-Glo, 16 h; series mostly up to 76.8 µM; further: nearly all actives have a fitted effect of over 50% in size
Records with an inconclusive call do not appear. Activity calls are given as the source filed them. Calls come from the whole dose curve; as a rule, active = well fitted cell-killing curve with a large enough effect in the repeat runs; inconclusive = weak or mixed curves, or effect the other way; inactive = no such curve, though single readings can be large or run the other way.
Respond using exactly one of the listed classes: TRUE (active), FALSE (inactive)

Consider the worked cases shown below.
1. O=[N+]([O-])c1ccc2[nH]ncc2c1 ... FALSE
2. CN1Cc2cc(C(=O)N3CCC(C4CCNCC4)CC3)ccc2NC(CC(=O)O)C1=O (stereo not drawn) ... FALSE
3. COCCCN1CCC(NC(=O)c2cc(Cl)c(N)c3c2OCC3)CC1 ... FALSE
4. Cn1c(=O)cc(Oc2ccc(F)cc2F)c2cnc(NCC(C)(C)O)nc21 ... FALSE
5. CC(C)(CO)[N+](=O)[O-] ... FALSE
6. CCCCCCCCCCCCCCCCCCOS(=O)(=O)O ... TRUE
7. O=[N+]([O-])c1ccc(NCCO)c(OCCO)c1 ... FALSE
8. O=C(NCCO[N+](=O)[O-])c1cccnc1 ... FALSE
9. CC[N+]1(CC)CCC(=C(c2ccccc2)c2ccccc2)C1C (stereo not drawn) ... FALSE
10. C/C=C/C=C/CO ... FALSE

Asked: Kindly provide the recorded test outcome for the following compound: `O=C1CCC(=O)O1`
Given back: FALSE

Asked: Kindly provide the recorded test outcome for the following compound: `CC(=O)[O][Al]`
Given back: FALSE

Asked: Kindly provide the recorded test outcome for the following compound: `Nc1cccc(S(=O)(=O)c2cccc(N)c2)c1`
Given back: FALSE

* * *

molecular target: Cytochrome P450 1A2 (Homo sapiens) (UniProt P05177); experiment: Cytochrome P450 Family 1 Subfamily A Member 2 (CYP1A2) small molecule antagonists: luciferase reporter qHTS assay (AID 1671199); settings: P450-Glo CYP1A2 enzyme, luciferin luminescence, 1 h; series mostly up to 53 µM; further: nearly all actives have a fitted effect of over 50% in size
Sequence (P05177 whole entry, looked up): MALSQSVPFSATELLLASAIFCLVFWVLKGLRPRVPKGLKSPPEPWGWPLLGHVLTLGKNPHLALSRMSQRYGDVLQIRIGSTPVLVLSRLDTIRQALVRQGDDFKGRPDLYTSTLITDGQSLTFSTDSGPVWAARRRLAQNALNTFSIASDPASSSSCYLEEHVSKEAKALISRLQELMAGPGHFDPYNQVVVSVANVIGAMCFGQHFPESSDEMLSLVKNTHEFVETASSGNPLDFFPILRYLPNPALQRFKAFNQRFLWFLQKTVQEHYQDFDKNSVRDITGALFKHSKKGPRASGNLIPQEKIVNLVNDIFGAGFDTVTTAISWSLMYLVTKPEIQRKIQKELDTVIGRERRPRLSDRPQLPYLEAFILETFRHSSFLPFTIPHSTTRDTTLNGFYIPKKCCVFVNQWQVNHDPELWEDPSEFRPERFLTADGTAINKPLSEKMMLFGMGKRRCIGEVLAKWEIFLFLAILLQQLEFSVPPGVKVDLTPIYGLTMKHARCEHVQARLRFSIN
Records with an inconclusive call do not appear. Active and inactive are the calls of the source. The call rests on the fitted dose curve; in most records, active means well fitted inhibition curve with a large enough effect in the repeat runs; inconclusive means weak or mixed curves; inactive means no such curve, though single readings can be large or run the other way.
Respond using exactly one of the listed classes: yes (1) = active, no (0) = inactive

Asked: Kindly provide the recorded test outcome for the following compound: CC(C)OC(=O)C(C)N(C(=O)c1ccccc1)c1ccc(F)c(Cl)c1 (configuration not stated)
Given back: yes (1)

Asked: Kindly provide the recorded test outcome for the following compound: COc1cc2nc(N3CCN(C(=O)C4COc5ccccc5O4)CC3)nc(N)c2cc1OC (configuration not stated)
Given back: no (0)

* * *

In this section, each of the compounds is paired with its reported activity change, positive = activation.
Experiment: qHTS assay to identify small molecule agonists of the estrogen related receptor (ERR) signaling pathway from Tox21 library (AID 1224849); further: on the % scale 0 is the no-effect control and ±100 the full control effect; nearly all actives have a fitted effect of over 15% in size
Conditions: ERR reporter cell line, ONE-Glo luciferase, 18 h; at 92.4 µM (top of the series) unless noted
Experimental: National Center for Advancing Translational Sciences [NCATS] NIH Chemical Genomics Center [NCGC] U.S. Environmental Protection Agency [EPA] National Institutes of Environmental Health Sciences [NIEHS] National Toxicology Program [NTP] […] The ERR cells were dispensed at 2,000 cells/5 ul/well in 1536-well white plates using a Multidrop dispenser. […] After 30-minute incubation at room temperature, the luminescence intensity in the plates was measured using a ViewLux plate reader.
Active and inactive are the calls of the source. Calls come from the whole dose curve.

Look over these answered cases.
1. Cn1c(=O)cc(Oc2ccc(F)cc2F)c2cnc(NCC(C)(C)O)nc21 ... -55.2% (inactive)
2. CC(CSC(=O)c1ccccc1)C(=O)N1C[C@@H](Sc2ccccc2)C[C@H]1C(=O)O (stereo partly specified) ... -0.059% [at 19 µM] (inactive)
3. Cc1c(N)cccc1[N+](=O)[O-] ... -14.7% (inactive)

Asked: Report activity change, positive = activation, nothing else, for this compound: `O=[N+]([O-])c1ccc(NCCO)c(OCCO)c1`
Given back: -14.5% (inactive)

Asked: Report activity change, positive = activation, nothing else, for this compound: `CN(C)CCCN1c2ccccc2Sc2ccccc21`
Given back: 7.95% [at 42.5 µM] (inactive)

Asked: Report activity change, positive = activation, nothing else, for this compound: `N=c1ccn2c(n1)O[C@H]1[C@H](O)[C@@H](CO)O[C@H]12`
Given back: -6.33% (inactive)

Asked: Report activity change, positive = activation, nothing else, for this compound: `NCCCN1CCOCC1`
Given back: 6.49% (inactive)

Asked: Report activity change, positive = activation, nothing else, for this compound: `CCn1cc(C(=O)O)c(=O)c2cnc(N3CCNCC3)nc21`
Given back: 2.22% [at 42.5 µM] (inactive)

Asked: Report activity change, positive = activation, nothing else, for this compound: `O=C(O)c1ccc(S(=O)(=O)O)cc1C(=O)O`
Given back: -2.89% (inactive)

Asked: Report activity change, positive = activation, nothing else, for this compound: `CC(C)C[C@H]1C(=O)N2CCC[C@H]2[C@]2(O)O[C@](NC(=O)[C@@H]3C=C4c5cccc6[nH]c(Br)c(c56)C[C@H]4N(C)C3)(C(C)C)C(=O)N12`
Given back: -64.1% [at 42.5 µM] (inactive)

Asked: Report activity change, positive = activation, nothing else, for this compound: `CCCCOC(=O)CCCCCCCC(=O)OCCCC`
Given back: 2.99% (inactive)

Cited source for all entries: PubChem BioAssay (Tox21)
